Hey, just so you know, these numbers are from PubChem BioAssay.

Please provide measured inhibition for the entries that follow.
System: transactivating tegument protein VP16 (Human herpesvirus 1), Gal4-VP16 luciferase reporter
Assay: VP16 transactivation inhibitors, counter-screen for SRC3 inhibitor project, cell-based, luminescence, high throughput (AID 588794)
Conditions: mammalian cells, VP16-driven luciferase reporter luminescence; at 3.6 µM; hits give high values
Numbers only, in %.

Consider the reported inhibition for these compounds:
structure_smiles_string=CCc1ccccc1Nc1nn2c(=O)c3ccc(C(=O)NCc4ccccn4)cc3nc2s1 value_unit=% assay_result=61.3
structure_smiles_string=Cc1[nH]nc2ncc(C(=O)c3ccccc3O)cc12 value_unit=% assay_result=43.9
structure_smiles_string=CC#CC[N+](C)(C)CCCCCCCCCCCC value_unit=% assay_result=39.2
structure_smiles_string=O=C(NCc1cccs1)c1nc2c(nnn2Cc2ccccc2Cl)c(=O)[nH]1 value_unit=% assay_result=79.5

Next, consider the following compound.
**Q:** Quick one: inhibition for COc1ccc(C(=O)Cn2nc(CNc3ccc(Br)cc3)[n+]3c2CCCCC3)cc1 ?
**A:** 3.2
